System: NCI-H1581 (Non-Small Cell Lung Carcinoma)
Experiment: Bliss excess, mean over the matrix (fraction); higher = more synergy;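 also: after 72 h of two-drug dosing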

MOLECULE: CCN(CCO)CCCOc1ccc2c(Nc3cc(CC(=O)Nc4cccc(F)c4)[nH]n3)ncnc2c1 [AZD2811] + C=CCn1c(=O)c2cnc(Nc3ccc(N4CCN(C)CC4)cc3)nc2n1-c1cccc(C(C)(C)O)n1 [AZD1775] (first compound max 1 µM, partner max 1 µM)
Bliss excess: 0.154

MOLECULE: CS(=O)(=O)CCNCc1ccc(-c2ccc3ncnc(Nc4ccc(OCc5cccc(F)c5)c(Cl)c4)c3c2)o1 [Lapatinib] + Cn1cnc2c(F)c(Nc3ccc(Br)cc3Cl)c(C(=O)NOCCO)cc21 [Selumetinib] (first compound max 10 µM, 7x7, partner max 10 µM)
Bliss excess: 0.031

MOLECULE: CC1(C)CCC(CN2CCN(c3ccc(C(=O)NS(=O)(=O)c4ccc(NCC5CCOCC5)c([N+](=O)[O-])c4)c(Oc4cnc5[nH]ccc5c4)c3)CC2)=C(c2ccc(Cl)cc2)C1 [Venetoclax] + C1CN(CCC1(C(=O)N[C@@H](CCO)C2=CC=C(C=C2)Cl)N)C3=NC=NC4=C3C=CN4 [Capivasertib] (first compound max 1 µM, 7x7, partner max 3 µM)
Bliss excess: -0.041

---

Test system: KARPAS-422 (B-Cell Non-Hodgkin's Lymphoma)
Assay: Bliss excess, mean over the matrix (fraction); higher = more synergy
Each entry below lists one item and its recorded Bliss excess value.
EXPERIMENTAL ENDPOINT: Bliss excess

COMPOUND: CC1(C)CCC(CN2CCN(c3ccc(C(=O)NS(=O)(=O)c4ccc(NCC5CCOCC5)c([N+](=O)[O-])c4)c(Oc4cnc5[nH]ccc5c4)c3)CC2)=C(c2ccc(Cl)cc2)C1 [Venetoclax] + CS(=O)(=O)CCNCc1ccc(-c2ccc3ncnc(Nc4ccc(OCc5cccc(F)c5)c(Cl)c4)c3c2)o1 [Lapatinib] (first compound max 1 µM, 7x7, partner max 10 µM)
EXPERIMENTAL ENDPOINT: Bliss excess
RESULT: 0.049

COMPOUND: CN(CCO)CC[C@H](CSc1ccccc1)Nc1ccc(S(=O)(=O)NC(=O)c2ccc(N3CCC([C@@H](O)c4ccccc4-c4ccc(Cl)cc4)CC3)cc2)cc1S(=O)(=O)C(F)(F)F [AZD4320] + CC(=O)O[C@H]1C(=O)[C@@]2(C)[C@H]([C@H](OC(=O)c3ccccc3)[C@]3(O)C[C@H](OC(=O)[C@H](O)[C@@H](NC(=O)c4ccccc4)c4ccccc4)C(C)=C1C3(C)C)[C@]1(OC(C)=O)CO[C@@H]1C[C@@H]2O [Paclitaxel] (first compound max 1 µM, 7x7, partner max 3 µM)
EXPERIMENTAL ENDPOINT: Bliss excess
RESULT: 0.141

COMPOUND: CN(CCO)CC[C@H](CSc1ccccc1)Nc1ccc(S(=O)(=O)NC(=O)c2ccc(N3CCC([C@@H](O)c4ccccc4-c4ccc(Cl)cc4)CC3)cc2)cc1S(=O)(=O)C(F)(F)F [AZD4320] + C[C@@H](Nc1cc(F)cc(F)c1)c1cc(C(=O)N(C)C)cc2c(=O)cc(N3CCOCC3)oc12 [AZD8186] (first compound max 1 µM, 7x7, partner max 3 µM)
EXPERIMENTAL ENDPOINT: Bliss excess
RESULT: 0.0234

COMPOUND: CN(CCO)CC[C@H](CSc1ccccc1)Nc1ccc(S(=O)(=O)NC(=O)c2ccc(N3CCC([C@@H](O)c4ccccc4-c4ccc(Cl)cc4)CC3)cc2)cc1S(=O)(=O)C(F)(F)F [AZD4320] + CS(=O)(=O)CCNCc1ccc(-c2ccc3ncnc(Nc4ccc(OCc5cccc(F)c5)c(Cl)c4)c3c2)o1 [Lapatinib] (first compound max 1 µM, 7x7, partner max 10 µM)
EXPERIMENTAL ENDPOINT: Bliss excess
RESULT: 0.0596

COMPOUND: COc1nnc2ccc(N3CCC(c4ccc(OCCN5CCN(C)C(=O)[C@H]5C)cc4)CC3)nn12 [AZD5153] + CC1(C)CCC(CN2CCN(c3ccc(C(=O)NS(=O)(=O)c4ccc(NCC5CCOCC5)c([N+](=O)[O-])c4)c(Oc4cnc5[nH]ccc5c4)c3)CC2)=C(c2ccc(Cl)cc2)C1 [Venetoclax] (first compound max 1 µM, 7x7, partner max 1 µM)
EXPERIMENTAL ENDPOINT: Bliss excess
RESULT: -0.032

COMPOUND: C=CCn1c(=O)c2cnc(Nc3ccc(N4CCN(C)CC4)cc3)nc2n1-c1cccc(C(C)(C)O)n1 [AZD1775] + CCc1c2c(nc3ccc(O)cc13)-c1cc3c(c(=O)n1C2)COC(=O)[C@]3(O)CC [SN-38] (first compound max 1 µM, partner max 0.3 µM)
EXPERIMENTAL ENDPOINT: Bliss excess
RESULT: -0.0699

COMPOUND: CS(=O)(=O)CCNCc1ccc(-c2ccc3ncnc(Nc4ccc(OCc5cccc(F)c5)c(Cl)c4)c3c2)o1 [Lapatinib] + NC1(c2ccc(-c3nc4ccn5c(=O)[nH]nc5c4cc3-c3ccccc3)cc2)CCC1 [MK-2206] (first compound max 10 µM, 7x7, partner max 10 µM)
EXPERIMENTAL ENDPOINT: Bliss excess
RESULT: -0.0122

COMPOUND: C[C@@H](Oc1cc(-c2cnn(C3CCNCC3)c2)cnc1N)c1c(Cl)ccc(F)c1Cl [Crizotinib] + CC1=C(C(=CC=C1)Cl)NC(=O)C2=CN=C(S2)NC3=CC(=NC(=N3)C)N4CCN(CC4)CCO [Dasatinib] (first compound max 10 µM, 7x7, partner max 2 µM)
EXPERIMENTAL ENDPOINT: Bliss excess
RESULT: 0.0411

COMPOUND: CC1(C)CCC(CN2CCN(c3ccc(C(=O)NS(=O)(=O)c4ccc(NCC5CCOCC5)c([N+](=O)[O-])c4)c(Oc4cnc5[nH]ccc5c4)c3)CC2)=C(c2ccc(Cl)cc2)C1 [Venetoclax] + C[C@@H](Nc1cc(F)cc(F)c1)c1cc(C(=O)N(C)C)cc2c(=O)cc(N3CCOCC3)oc12 [AZD8186] (first compound max 1 µM, 7x7, partner max 3 µM)
EXPERIMENTAL ENDPOINT: Bliss excess
RESULT: 0.0808

COMPOUND: Cc1c2c(nn1C)CSCc1cc(n(C)n1)CSc1cc(c3ccccc3c1)OCCCc1c(C(=O)O)n(C)c3c-2c(Cl)ccc13 [AZD5991] + C[C@@H]1COCCN1C2=NC(=NC(=C2)C3(CC3)[S@](=N)(=O)C)C4=C5C=CNC5=NC=C4 [AZD6738] (first compound max 1 µM, 7x7, partner max 10 µM)
EXPERIMENTAL ENDPOINT: Bliss excess
RESULT: -0.0209

COMPOUND: COc1nnc2ccc(N3CCC(c4ccc(OCCN5CCN(C)C(=O)[C@H]5C)cc4)CC3)nn12 [AZD5153] + C=CCn1c(=O)c2cnc(Nc3ccc(N4CCN(C)CC4)cc3)nc2n1-c1cccc(C(C)(C)O)n1 [AZD1775] (first compound max 1 µM, partner max 1 µM)
EXPERIMENTAL ENDPOINT: Bliss excess
RESULT: -0.108

COMPOUND: C[C@@H]1COCCN1c1cc(C2([S@](C)(=N)=O)CC2)nc(-c2ccnc3[nH]ccc23)n1 [AZD6738] + O=C(c1cc(Cc2n[nH]c(=O)c3ccccc23)ccc1F)N1CCN(C(=O)C2CC2)CC1 [Olaparib] (first compound max 10 µM, 7x7, partner max 10 µM)
EXPERIMENTAL ENDPOINT: Bliss excess
RESULT: -0.0539

---

Tested on: TT (Thyroid Gland Carcinoma)
Test: Bliss excess, mean over the matrix (fraction); higher = more synergy
Decide by Bliss excess: equal to or exceeding -0.06 means true (1), less means false (0).

MOLECULE: CN(CCO)CC[C@H](CSc1ccccc1)Nc1ccc(S(=O)(=O)NC(=O)c2ccc(N3CCC([C@@H](O)c4ccccc4-c4ccc(Cl)cc4)CC3)cc2)cc1S(=O)(=O)C(F)(F)F [AZD4320] + Cc1cc2ncnn2cc1Nc1ncc2c(n1)n(C1CCOCC1)c(=O)n2C [AZD7648] (first compound max 1 µM, 7x7, partner max 10 µM)
CLASSIFICATION: false (0)

MOLECULE: COc1cc2c(cc1OCCCCCOc1cc3c(cc1OC)C(=O)N1C=C(C)C[C@H]1C=N3)N=C[C@@H]1CC(C)=CN1C2=O [SG3199] + O=C(c1cc(Cc2n[nH]c(=O)c3ccccc23)ccc1F)N1CCN(C(=O)C2CC2)CC1 [Olaparib] (first compound max 0.001 µM, 7x7, partner max 10 µM)
CLASSIFICATION: false (0)

MOLECULE: Cc1c2c(nn1C)CSCc1cc(n(C)n1)CSc1cc(c3ccccc3c1)OCCCc1c(C(=O)O)n(C)c3c-2c(Cl)ccc13 [AZD5991] + CCN(CCO)CCCOc1ccc2c(Nc3cc(CC(=O)Nc4cccc(F)c4)[nH]n3)ncnc2c1 [AZD2811] (first compound max 1 µM, 7x7, partner max 1 µM)
CLASSIFICATION: false (0)

MOLECULE: NC1(C(=O)N[C@@H](CCO)c2ccc(Cl)cc2)CCN(c2ncnc3[nH]ccc23)CC1 [Capivasertib] + Cn1cnc2c(F)c(Nc3ccc(Br)cc3Cl)c(C(=O)NOCCO)cc21 [Selumetinib] (first compound max 10 µM, 7x7, partner max 10 µM)
CLASSIFICATION: true (1)

MOLECULE: CN(C)CCCOc1ccc(-c2ccc3ncc4c(c3c2)n(C2CCOCC2)c(=O)n4C)cn1 [AZD0156] + C=CCn1c(=O)c2cnc(Nc3ccc(N4CCN(C)CC4)cc3)nc2n1-c1cccc(C(C)(C)O)n1 [AZD1775] (first compound max 1 µM, partner max 1 µM)
CLASSIFICATION: false (0)

MOLECULE: COc1cccc2c1C(=O)c1c(O)c3c(c(O)c1C2=O)C[C@@](O)(C(=O)CO)C[C@@H]3O[C@H]1C[C@H](N)[C@H](O)[C@H](C)O1 [Doxorubicin] + Cc1cc2ncnn2cc1Nc1ncc2c(n1)n(C1CCOCC1)c(=O)n2C [AZD7648] (first compound max 1 µM, 7x7, partner max 10 µM)
CLASSIFICATION: true (1)
